EXPERIMENTAL_TARGET: AmpC (P99) (Enterobacter cloacae, UniProt P05364)
PROTOCOL_SUMMARY: biochemical
pIC50: −log10 of the molar value.
Parameter threshold = 8. Response is true when pIC50 meets or exceeds it, else false.

Query block: Check the entry NCCONC(=O)c1ccn(C2=CC3CN(C2)C(=O)N3OS(=O)(=O)O)n1 (centres unmarked) : does pIC50 equal or exceed 8?
Result block: false

Query block: Say whether NCCNC(=O)c1cnn(C2=CC3CN(C2)C(=O)N3OS(=O)(=O)O)c1 (centres unmarked) shows pIC50 of 8 or more.
Result block: false

Query block: State whether the measured pIC50 reaches 8, counting equality as reaching it, for Nc1ncc(C(=O)Nc2ccn(C3=CC4CN(C3)C(=O)N4OS(=O)(=O)[O-])n2)s1.[Na+] (centres unmarked)
Result block: true

Query block: Hi, just wondering whether NC(=O)c1cnn(C2=CC3CN(C2)C(=O)N3OS(=O)(=O)[O-])c1.[Na+] (centres unmarked) shows pIC50 of 8 or higher.
Result block: false

====

Test system: K. pneumoniae 6299
PROTOCOL_SUMMARY: MIC of compound alone, broth microdilution
Assay type: cell-based
RUN_PARAMETERS: Klebsiella pneumoniae; strain 6299; compound alone; read-out: MIC compounds of the invention alone
In this section we review reported MIC values for a set of molecules.

{"MOLECULE": "Nc1ncc(C(=O)Nc2ccn(C3=CC4CN(C3)C(=O)N4OS(=O)(=O)[O-])n2)s1.[Na+] (centres unmarked)", "MIC": "> 32 µg/mL"}
{"MOLECULE": "O=C(NCCN1CCOCC1)c1ccn(C2=CC3CN(C2)C(=O)N3OS(=O)(=O)O)n1 (centres unmarked)", "MIC": "> 32 µg/mL"}
{"MOLECULE": "NCCONC(=O)c1ccn(C2=CC3CN(C2)C(=O)N3OS(=O)(=O)O)n1 (centres unmarked)", "MIC": "> 32 µg/mL"}

Query block: Look up MIC of CC(=NOCCN)c1ccn(C2=CC3CN(C2)C(=O)N3OS(=O)(=O)O)n1 (mixture of isomers) and report it.
Result block: > 32 µg/mL

Query block: Given the molecule O=C1N2CC(n3nccc3CCO)=CC(C2)N1OS(=O)(=O)[O-].[Na+] (centres unmarked) , write its reported MIC.
Result block: > 32 µg/mL

Query block: Provide only the value of recorded MIC for O=C(Nc1ccn(C2=CC3CN(C2)C(=O)N3OS(=O)(=O)[O-])n1)c1nccs1.[Na+] (centres unmarked)
Result block: > 32 µg/mL

Query block: Using the record for NCCONC(=O)c1cn(C2=CC3CN(C2)C(=O)N3OS(=O)(=O)O)nn1 (centres unmarked) , state its measured MIC.
Result block: > 32 µg/mL

Query block: For O=C1N2CC(n3cc(N4CCNCC4)cn3)=CC(C2)N1OS(=O)(=O)O (centres unmarked) , write its MIC.
Result block: > 32 µg/mL

Query block: Report MIC for O=C(N[C@@H]1CCNC1)c1ccn(C2=CC3CN(C2)C(=O)N3OS(=O)(=O)O)n1 (some centres unmarked)
Result block: 32 µg/mL

Query block: Return reported MIC. Input molecule: O=C1N2CC(n3cc(CO)cn3)=CC(C2)N1OS(=O)(=O)[O-].[Na+] (centres unmarked)
Result block: 32 µg/mL

Query block: Determine from records and report MIC for O=C(NCCO)c1ccn(C2=CC3CN(C2)C(=O)N3OS(=O)(=O)[O-])n1.[Na+] (centres unmarked)
Result block: > 32 µg/mL

Query block: For the molecule O=C1N2CC(n3cc(C(F)(F)F)cn3)=CC(C2)N1OS(=O)(=O)[O-].[Na+] (centres unmarked) , report MIC.
Result block: > 32 µg/mL

Query block: Provide one value: measured MIC of O=C(NOCCO)c1ccn(C2=CC3CN(C2)C(=O)N3OS(=O)(=O)[O-])n1.[Na+] (centres unmarked)
Result block: 32 µg/mL

Query block: Give MIC for the following molecule: O=C(CO)Nc1ccn(C2=CC3CN(C2)C(=O)N3OS(=O)(=O)[O-])n1.[Na+] (centres unmarked)
Result block: 16 µg/mL

Query block: Look up and state reported MIC for O=C1N2CC(n3ccc([C@H](O)CO)n3)=CC(C2)N1OS(=O)(=O)[O-].[Na+] (some centres unmarked)
Result block: > 32 µg/mL

Query block: Return MIC for the following molecule: [2H]c1nn(C2=CC3CN(C2)C(=O)N3OS(=O)(=O)[O-])c([2H])c1[2H].[Na+] (centres unmarked)
Result block: 8 µg/mL

Query block: Report MIC, nothing else, for this molecule: O=C1N2CC(n3ccnc3CO)=CC(C2)N1OS(=O)(=O)[O-].[Na+] (centres unmarked)
Result block: > 32 µg/mL

====

EXPERIMENTAL_TARGET: KPC-2 (Klebsiella pneumoniae, UniProt Q9F663)
Binning scheme for IC50: band A = under 0.007 µM, band B = from 0.007 µM up to 0.02 µM, band C = 0.02 µM and over

Answered cases to consult:
{"MOLECULE": "O=C1N2CC(n3ccnc3CO)=CC(C2)N1OS(=O)(=O)[O-].[Na+] (centres unmarked) [Example 70]", "CLASSIFICATION": "band C"}
{"MOLECULE": "O=C1N2CC(n3ncnn3)=CC(C2)N1OS(=O)(=O)[O-].[Na+] (centres unmarked) [Example 44]", "CLASSIFICATION": "band B"}
{"MOLECULE": "O=C1N2CC(n3cc(C(F)(F)F)cn3)=CC(C2)N1OS(=O)(=O)[O-].[Na+] (centres unmarked) [Example 22]", "CLASSIFICATION": "band A"}
{"MOLECULE": "O=C1N2CC(n3ccnn3)=C[C@H](C2)N1OS(=O)(=O)O [Example 6]", "CLASSIFICATION": "band A"}
{"MOLECULE": "O=C(CCO)Nc1ccn(C2=CC3CN(C2)C(=O)N3OS(=O)(=O)[O-])n1.[Na+] (centres unmarked) [Example 51]", "CLASSIFICATION": "band B"}

Query block: Class? Entry: O=C1N2CC(n3nccn3)=CC(C2)N1OS(=O)(=O)O (centres unmarked) [Example 3]
Result block: band B

Query block: Kindly state the category for this molecule: NCCONC(=O)c1ccn(C2=CC3CN(C2)C(=O)N3OS(=O)(=O)O)n1 (centres unmarked) [Example 46]
Result block: band B

Query block: Bin this entry: N#Cc1cnn(C2=CC3CN(C2)C(=O)N3OS(=O)(=O)[O-])c1.[Na+] (centres unmarked) [Example 8]
Result block: band A

Query block: Tag the class for O=C(Nc1ccn(C2=CC3CN(C2)C(=O)N3OS(=O)(=O)O)n1)c1cncs1 (centres unmarked) [Example 77]
Result block: band B

Query block: Consider NC(=O)Cc1ccn(C2=CC3CN(C2)C(=O)N3OS(=O)(=O)[O-])n1.[Na+] (centres unmarked) [Example 45] . To which IC50 class does it belong?
Result block: band C

====

Here, each record is paired with measured IC50 data.
EXPERIMENTAL_TARGET: AmpC (PAE) (Pseudomonas aeruginosa, UniProt P24735)
PROTOCOL_SUMMARY: biochemical
I only need the number, in nM, no unit after it.

# annotated cases, reported IC50 shown
{"COMPOUND": "NS(=O)(=O)c1cnn(C2=CC3CN(C2)C(=O)N3OS(=O)(=O)[O-])c1.[Na+] (centres unmarked) [Example 16]", "IC50 / nM": 180}
{"COMPOUND": "O=C1N2CC(n3cc(CO)cn3)=CC(C2)N1OS(=O)(=O)[O-].[Na+] (centres unmarked) [Example 71]", "IC50 / nM": 47}

Query block: Provide only the value of recorded IC50 for NC(=O)Cc1ccn(C2=CC3CN(C2)C(=O)N3OS(=O)(=O)[O-])n1.[Na+] (centres unmarked) [Example 45]
Result block: 66

Query block: Consider the compound NC(=O)CNCc1cn(C2=CC3CN(C2)C(=O)N3OS(=O)(=O)O)nn1 (centres unmarked) [Example 66] . State its measured IC50.
Result block: 250

Query block: Please give measured IC50 of the following entry: O=C(c1ccn(C2=CC3CN(C2)C(=O)N3OS(=O)(=O)[O-])n1)N1CCOCC1.[Na+] (centres unmarked) [Example 31, sulfate]
Result block: 210

====

EXPERIMENTAL_TARGET: TEM-1 (Escherichia coli)
RUN_PARAMETERS: read-out: IC50 β-lactamase TEM-1; class (A); nitrocefin 200 μM, 30-min pre-incubation, enzyme 0.1 nM
PROPERTY: IC50 (nM)
State just the number; it will be interpreted in nM.

Solved entries (count: 3):
{"MOLECULE": "O=C([O-])Cc1cn(C2=CC3CN(C2)C(=O)N3OS(=O)(=O)[O-])nn1.[Na+].[Na+] (stereo not shown)", "EXPERIMENTAL_TARGET": "TEM-1 (Escherichia coli)", "IC50 / nM": 1.7}
{"MOLECULE": "O=C1N2CC(n3cc(-c4nccs4)nn3)=CC(C2)N1OS(=O)(=O)[O-].[Na+] (stereo not shown)", "EXPERIMENTAL_TARGET": "TEM-1 (Escherichia coli)", "IC50 / nM": 0.14}
{"MOLECULE": "NCc1cnn(C2=CC3CN(C2)C(=O)N3OS(=O)(=O)[O-])c1.O=C(O)C(F)(F)F.[Na+] (stereo not shown)", "EXPERIMENTAL_TARGET": "TEM-1 (Escherichia coli)", "IC50 / nM": 0.79}

Query block: Identify measured IC50 obtained with TEM-1 (Escherichia coli) for NC(=O)c1cn(C2=CC3CN(C2)C(=O)N3OS(=O)(=O)[O-])nn1.[Na+] (stereo not shown) .
Result block: 0.17
